Cited source: the supplement of paper PMC12340641

system: HEK293FT dCK*-only; assay: relative growth in counter assay (no AraC = 100%, AraC + DMSO = 0%); higher = more growth rescue independent of IKZF1; details: compound concentration: 5 uM; AraC concentration: 0.3 uM; overnight pretreatment + 4 days AraC
Whole data set: some 1,000 compounds, median “relative growth in counter assay (no AraC = 100%, AraC + DMSO = 0%)” near -1.1, cut for the highest 2% near 20. Only a selection was taken, and the highest values are over-represented in it overall.
metric_name: relative growth in counter assay (%)
Give the number; % is assumed, so skip it.

Some entries whose results are on file:
>>> df
                                   compound  observed_value
0  Cc1cc(NS(=O)(=O)c2ccc(NC(=O)COc3ccc(C(C)C)cc3)cc2)nc(C)n1           -0.57
1  O=C(C1CCCCC1)N1CCOC(c2cccc(Nc3nccs3)n2)C1 (stereo not given)           -5.66
2  Cc1ccc(Oc2cccc(N3C(=O)c4ccc(Oc5ccc(N)cc5)cc4C3=O)c2)cc1C           -3.99
3  CC(C)c1ccc(OCC(=O)Nc2ccc(S(=O)(=O)Nc3ccccn3)cc2)cc1            4.55

Next, consider the following compound.
Exam item: // query relative growth in counter assay value for entry COCC(=O)N1CCC(c2cccc(Nc3nc(C)cs3)n2)CC1
Marked response: 14

====

tested on: HEK293FT dCK*-only; assay: relative growth in counter assay (no AraC = 100%, AraC + DMSO = 0%); higher = more growth rescue independent of IKZF1; conditions: compound concentration: 5 uM; AraC concentration: 0.3 uM; overnight pretreatment + 4 days AraC
The full ranking holds about 1,000 compounds; the median of “relative growth in counter assay (no AraC = 100%, AraC + DMSO = 0%)” is about -1.1, and the highest 2% start at about 20. This excerpt belongs to a sample that is enriched for the highest values.
Below: a set of entries, each annotated with reported relative growth in counter assay.
Numbers only here, please. The scale is %.

Answered examples (3):
In [3]: df
Out[3]:
                                   compound  observed_value
0  COc1ccc(-c2csc(Nc3ccc(S(=O)(=O)Nc4nc(C)cc(C)n4)cc3)n2)cc1           -6.81
1  Cc1noc(CCC(=O)N2CCOC(c3cccc(Nc4nc(C)c(C)s4)n3)C2)n1 (stereo unspecified)            5.54
2  Cc1cc(C)nc(SCC(=O)Nc2ccc(S(=O)(=O)Nc3ncccn3)cc2)n1            19.9

Exam item: Field: relative growth in counter assay (HEK293FT dCK*-only). Entry: Cc1csc(Nc2cccc(C3CN(C(=O)CCCc4ccc(F)cc4)CCO3)n2)n1 (stereo unspecified)
Marked response: 36.2

Exam item: What value of relative growth in counter assay on HEK293FT dCK*-only does COc1cccc(CCC(=O)N2CCOC(c3cccc(Nc4ncc(C)s4)n3)C2)c1 (stereo unspecified) have?
Marked response: 6.36

Exam item: // lookup relative growth in counter assay | system=HEK293FT dCK*-only | key= CS(=O)(=O)Nc1ccc(S(=O)(=O)Nc2ncccn2)cc1
Marked response: 3.46

Exam item: # query: relative growth in counter assay | item O=C(Nc1ccc(S(=O)(=O)Nc2ccccn2)cc1)c1cc2ccccc2o1 | system: HEK293FT dCK*-only
Marked response: -2.82

Exam item: GET /values?readout=relative growth in counter assay&system=HEK293FT dCK*-only&item= Cc1nc(Nc2cccc(C3CCN(C(=O)c4n[nH]c5c4CCCC5)CC3)n2)sc1C
Marked response: 14

Exam item: Request body: readout relative growth in counter assay, system HEK293FT dCK*-only, query COCC(=O)N1CCCC1c1cccc(Nc2ncc(C)s2)n1 (stereo unspecified) . Return the value.
Marked response: 0.29

Exam item: Lab note: need relative growth in counter assay for Cc1nc(Nc2cccc(C3CCCN3C(=O)c3cc4ccc(F)cc4[nH]3)n2)sc1C (stereo unspecified) on HEK293FT dCK*-only, anyone have it?
Marked response: 9.01

Exam item: Give HEK293FT dCK*-only relative growth in counter assay for CC(C)(C)c1ccccc1OCC(=O)Nc1ccc(S(=O)(=O)Nc2ncccn2)cc1
Marked response: -1.93

Exam item: Hello, I am looking for reported relative growth in counter assay with HEK293FT dCK*-only for CC(C)(C)C(=O)N1CCC(Cc2ccc(Nc3ncc(-c4ccc(F)cc4)s3)nc2)CC1 . Could you help?
Marked response: 12.2

Exam item: Recall the recorded relative growth in counter assay for CC(C)CC(C(=O)Nc1ccc(S(=O)(=O)Nc2ccccn2)cc1)N1C(=O)c2ccccc2C1=O (stereo unspecified) with HEK293FT dCK*-only and state it.
Marked response: 0.21

Exam item: Recorded relative growth in counter assay for NC(=O)CN1CCC(Cc2cccc(Nc3nccs3)n2)CC1 with HEK293FT dCK*-only, please?
Marked response: -23.2

Exam item: Form entry - test system: HEK293FT dCK*-only; read-out: relative growth in counter assay; compound: CCC(Oc1ccccc1)C(=O)Nc1ccc(S(=O)(=O)Nc2ncccn2)cc1 (stereo unspecified)
Marked response: 27.4

Exam item: Notebook entry, HEK293FT dCK*-only assay: relative growth in counter assay of Cc1ccnc(NS(=O)(=O)c2ccc(NC(=O)c3ccco3)cc2)n1 = ?
Marked response: 3.62

Exam item: relative growth in counter assay of COc1cc(NS(=O)(=O)c2ccc(NC(=O)/C=C/C(=O)O)cc2)nc(OC)n1 on HEK293FT dCK*-only?
Marked response: 2.31

Exam item: Find the measured relative growth in counter assay: item COc1ccc(CCC(=O)N2CCOC(c3cccc(Nc4nc(C)cs4)n3)C2)cc1 (stereo unspecified) , target or system HEK293FT dCK*-only.
Marked response: 19.5

Exam item: For HEK293FT dCK*-only, provide relative growth in counter assay of Cc1ccc(C)c(OCCCC(=O)Nc2ccc(S(=O)(=O)Nc3ncccn3)cc2)c1 please.
Marked response: -2.63

Exam item: Entry Cc1cnc(Nc2cccc(C3CN(C(=O)c4ccccn4)CCO3)n2)s1 (stereo unspecified) , system HEK293FT dCK*-only: what relative growth in counter assay was measured?
Marked response: -7.73

Exam item: For the record O=C(C1CCCCC1)N1CCC(c2cccc(Nc3nccs3)n2)CC1 , what value of relative growth in counter assay is listed for HEK293FT dCK*-only?
Marked response: -10.8

====

test system: HEK293FT dCK*-only; assay: relative growth in counter assay (no AraC = 100%, AraC + DMSO = 0%); higher = more growth rescue independent of IKZF1; details: compound concentration: 5 uM; AraC concentration: 0.3 uM; overnight pretreatment + 4 days AraC
In all, about 1,000 compounds were measured (“relative growth in counter assay (no AraC = 100%, AraC + DMSO = 0%)”: median about -1.1, highest 2% from about 20 on). What follows is part of a selection rich in the highest values, with near analogues and random picks from the rest.
metric_name: relative growth in counter assay (%)
Please give a number only; it is taken to be in %.

                                   compound                       metric_name  scale_unit  observed_value
0  Cc1cnc(Nc2cccc(C3CN(C(=O)C4(c5ccccc5)CC4)CCO3)n2)s1 (stereo not given)  relative growth in counter assay           %           -7.66
1  CCCOc1ccccc1C(=O)Nc1ccc(S(=O)(=O)Nc2nc(C)cc(C)n2)cc1  relative growth in counter assay           %            2.83
2       CC(=O)Nc1ccc(S(=O)(=O)Nc2ccccn2)cc1  relative growth in counter assay           %           -7.51
3  Cn1nccc1/C=C/C(=O)N1CCCC(c2cc3ccccc3c(Nc3nccs3)n2)C1 (stereo not given)  relative growth in counter assay           %           -13.3
4  CNC(=O)C(c1cccc(Nc2ncc(C)s2)n1)C1CCN(C(=O)c2cccc(Cl)c2F)CC1 (stereo not given)  relative growth in counter assay           %           -0.24
5  O=C(/C=C/c1ccccc1)N1CCCC(c2csc(Nc3ccccn3)n2)C1 (stereo not given)  relative growth in counter assay           %            34.8
6  COc1ccc(N2CC(C(=O)Nc3ccc(S(=O)(=O)Nc4nc(C)cc(C)n4)cc3)CC2=O)cc1 (stereo not given)  relative growth in counter assay           %            7.32
7  Nc1ccc(C(=O)N2CCCC2c2cccc(Nc3nccs3)n2)cn1 (stereo not given)  relative growth in counter assay           %            -0.6

Exam item: What reported relative growth in counter assay corresponds to CCCc1cnc(Nc2cccc(C3CCN(C(=O)C4CCCCN4CC(=O)O)CC3)n2)s1 (stereo not given) on HEK293FT dCK*-only?
Marked response: -19.3

Exam item: # value lookup — system HEK293FT dCK*-only, readout relative growth in counter assay, item CC(=O)N1CCCC(c2csc(Nc3ccccn3)n2)C1 (stereo not given)
Marked response: 0.33
